- Tested on: 596521-263-R-J1-PDC complex spheroids, viability % of control;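 note: spheroids exposed to drugs for 7 days before viability reading; 100% = DMSO vehicle control viability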
- methodDescription: Anticancer human tumor 596521-263-R-J1-PDC patient-derived soft tissue sarcoma cell line growth inhibition [GQUAD]
- appliedConditions: second compound 0.316 µM; first compound 0.00999 µM; stronger effect = lower value
Exercise: for every item that follows, state its recorded viability, T/C.
Report only the number, with the unit % understood.

In: I am curious: what viability, T/C value has been reported for CCc1c2c(nc3ccc(O)cc13)-c1cc3c(c(=O)n1C2)COC(=O)[C@]3(O)CC + Cc1cnc(CNC(=O)c2c(=O)c3ccc(N4CCCN(C)CC4)nc3n3c2sc2ccccc23)cn1 ?
Out: 49.9

In: I am curious: what viability, T/C value has been reported for Cc1[nH]c2ccccc2c1CCNCc1ccc(/C=C/C(=O)NO)cc1 + Cc1[nH]c2ccc(F)cc2c1-c1nc2c3cccnc3c3ncccc3c2[nH]1 ?
Out: 93.2

In: I am curious: what viability, T/C value has been reported for Cc1[nH]c2ccccc2c1CCNCc1ccc(/C=C/C(=O)NO)cc1 + CN(C)c1ccc(Nc2c3ccc(NC(=O)CCN4CCCC4)cc3nc3cc(NC(=O)CCN4CCCC4)ccc23)cc1 ?
Out: 77

In: I am curious: what viability, T/C value has been reported for CCc1c2c(nc3ccc(O)cc13)-c1cc3c(c(=O)n1C2)COC(=O)[C@]3(O)CC + CN(C)c1ccc(Nc2c3ccc(NC(=O)CCN4CCCC4)cc3nc3cc(NC(=O)CCN4CCCC4)ccc23)cc1 ?
Out: 39.1

In: I am curious: what viability, T/C value has been reported for CC[C@@]1(O)C(=O)OCc2c1cc1n(c2=O)Cc2cc3c(CN(C)C)c(O)ccc3nc2-1 + Cc1cnc(CNC(=O)c2c(=O)c3ccc(N4CCCN(C)CC4)nc3n3c2sc2ccccc23)cn1 ?
Out: 78.3

In: I am curious: what viability, T/C value has been reported for Cn1ncnc1[C@H]1c2n[nH]c(=O)c3cc(F)cc(c23)N[C@@H]1c1ccc(F)cc1 + Cc1cnc(CNC(=O)c2c(=O)c3ccc(N4CCCN(C)CC4)nc3n3c2sc2ccccc23)cn1 ?
Out: 86.4

In: I am curious: what viability, T/C value has been reported for CC[C@@]1(O)C(=O)OCc2c1cc1n(c2=O)Cc2cc3c(CN(C)C)c(O)ccc3nc2-1 + CN(C)c1ccc(Nc2c3ccc(NC(=O)CCN4CCCC4)cc3nc3cc(NC(=O)CCN4CCCC4)ccc23)cc1 ?
Out: 83.3

In: I am curious: what viability, T/C value has been reported for CCc1c2c(nc3ccc(O)cc13)-c1cc3c(c(=O)n1C2)COC(=O)[C@]3(O)CC + Cc1[nH]c2ccc(F)cc2c1-c1nc2c3cccnc3c3ncccc3c2[nH]1 ?
Out: 44

In: I am curious: what viability, T/C value has been reported for Cn1ncnc1[C@H]1c2n[nH]c(=O)c3cc(F)cc(c23)N[C@@H]1c1ccc(F)cc1 + Cc1[nH]c2ccc(F)cc2c1-c1nc2c3cccnc3c3ncccc3c2[nH]1 ?
Out: 97.9

In: I am curious: what viability, T/C value has been reported for Cc1[nH]c2ccccc2c1CCNCc1ccc(/C=C/C(=O)NO)cc1 + Cc1cnc(CNC(=O)c2c(=O)c3ccc(N4CCCN(C)CC4)nc3n3c2sc2ccccc23)cn1 ?
Out: 67.8

In: I am curious: what viability, T/C value has been reported for Cn1ncnc1[C@H]1c2n[nH]c(=O)c3cc(F)cc(c23)N[C@@H]1c1ccc(F)cc1 + CN(C)c1ccc(Nc2c3ccc(NC(=O)CCN4CCCC4)cc3nc3cc(NC(=O)CCN4CCCC4)ccc23)cc1 ?
Out: 102

In: I am curious: what viability, T/C value has been reported for CC[C@@]1(O)C(=O)OCc2c1cc1n(c2=O)Cc2cc3c(CN(C)C)c(O)ccc3nc2-1 + Cc1[nH]c2ccc(F)cc2c1-c1nc2c3cccnc3c3ncccc3c2[nH]1 ?
Out: 90.7

Ref: PubChem BioAssay AID2060500
